Target: HsProRS (Homo sapiens)
Sequence (P07814 1007-1512 limits assumed): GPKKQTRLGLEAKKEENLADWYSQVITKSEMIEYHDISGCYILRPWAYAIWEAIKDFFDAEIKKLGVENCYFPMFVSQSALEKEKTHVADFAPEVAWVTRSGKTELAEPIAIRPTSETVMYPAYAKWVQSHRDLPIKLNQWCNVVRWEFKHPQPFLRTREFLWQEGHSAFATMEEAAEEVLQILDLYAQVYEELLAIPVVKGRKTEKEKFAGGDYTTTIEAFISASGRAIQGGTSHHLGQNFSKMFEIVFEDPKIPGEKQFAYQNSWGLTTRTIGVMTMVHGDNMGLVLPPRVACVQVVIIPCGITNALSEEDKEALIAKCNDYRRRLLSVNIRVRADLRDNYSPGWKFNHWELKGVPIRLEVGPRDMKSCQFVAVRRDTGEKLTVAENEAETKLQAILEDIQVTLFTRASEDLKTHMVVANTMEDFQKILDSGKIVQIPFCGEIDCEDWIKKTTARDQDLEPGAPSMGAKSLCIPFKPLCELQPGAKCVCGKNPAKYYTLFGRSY
Experiment: TR-FRET ligand displacement assay with tracer MAT379, HsProRS
Format: binding
Conditions: no proline, no ATP; read-out: HsProRS (KD [nM]) −
Observed Property: Kd

> print(dat)
                                   compound  endpoint.result
1  CC(C)(C)OC(=O)N1CCN(C(=O)Nc2nccnc2C(=O)NC2Cc3ccccc3C2)CC1 [Compound 13]        > 8720 nM

Look up Kd for the entries below, preserving their order.
1. O=C(NC1Cc2ccccc2C1)c1nccnc1NS(=O)(=O)C1CCCCC1 [Compound 50]
2. Nc1ncnc2c1ncn2[C@@H]1O[C@H](CNS(=O)(=O)NC(=O)OCCn2cnc3ccccc3c2=O)[C@@H](O)[C@H]1O [MAT511]

Solution:
1. > 8720 nM
2. > 8720 nM

====

Could you please report measured pKd for the items listed next?
Target: HsProRS (Homo sapiens)
Sequence (P07814 1007-1512 limits assumed): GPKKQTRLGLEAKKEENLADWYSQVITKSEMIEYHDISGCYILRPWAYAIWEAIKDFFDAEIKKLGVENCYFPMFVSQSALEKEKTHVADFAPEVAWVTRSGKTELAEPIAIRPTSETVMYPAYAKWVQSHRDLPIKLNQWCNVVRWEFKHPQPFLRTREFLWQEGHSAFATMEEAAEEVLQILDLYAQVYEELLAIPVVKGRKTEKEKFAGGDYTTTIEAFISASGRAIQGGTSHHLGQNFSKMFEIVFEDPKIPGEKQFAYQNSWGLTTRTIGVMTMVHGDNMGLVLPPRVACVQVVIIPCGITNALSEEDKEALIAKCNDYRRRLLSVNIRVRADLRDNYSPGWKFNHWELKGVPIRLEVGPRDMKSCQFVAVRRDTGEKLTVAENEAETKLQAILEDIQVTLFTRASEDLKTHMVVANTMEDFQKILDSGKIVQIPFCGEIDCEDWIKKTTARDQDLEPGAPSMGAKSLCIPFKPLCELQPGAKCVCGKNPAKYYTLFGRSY
Experiment: TR-FRET ligand displacement assay with tracer MAT379, HsProRS
Assay type: binding
pKd: −log10 of the molar value.

Examples from the recorded data:
> print(dat)
                                     smiles           tested.system  observed.property  endpoint.result
1                   Nc1nccnc1C(=O)NC1CCCCC1  HsProRS (Homo sapiens)                pKd           < 5.29
2  O=C(NC1Cc2ccccc2C1)c1nccnc1NS(=O)(=O)C1CCCCC1  HsProRS (Homo sapiens)                pKd           < 5.29

Now for the compound whose pKd we want.
Exercise: What value of measured pKd is listed for CC(C)(C)OC(=O)NCC1CCN(C(=O)Nc2nccnc2C(=O)NC2Cc3ccccc3C2)CC1 ?
Solution: < 5.29

Sourced from patent US20250228855A1
